These data points were gathered from ChEMBL document CHEMBL1671716.

# System: Peptostreptococcus anaerobius
# PROTOCOL_SUMMARY: Antimicrobial activity against Peptostreptococcus anaerobius after 48 hrs by agar dilution method
# Assay type: functional
ENDPOINT_LABEL: MIC50 (µg/mL)

>>> endpoint_result("CCC[C@@H]1C[C@@H](C(=O)N[C@@H]([C@H]2O[C@H](SC)[C@H](O)[C@@H](O)[C@H]2O)[C@H](C)Cl)N(C)C1 [CLINDAMYCIN]")
0.125
>>> endpoint_result("C[C@@H](O)[C@H]1C(=O)N2C(C(=O)O)=C(SCCNC=N)C[C@H]12 [IMIPENEM ANHYDROUS]")
0.125
>>> endpoint_result("CCN1CCN(C(=O)N[C@@H](C(=O)N[C@@H]2C(=O)N3[C@@H]2SC(C)(C)[C@@H]3C(=O)O)c2ccccc2)C(=O)C1=O [PIPERACILLIN]")
0.25
>>> endpoint_result("O=C(N[C@H](CO)[C@H](O)c1ccc([N+](=O)[O-])cc1)C(Cl)Cl [CHLORAMPHENICOL]")
2
>>> endpoint_result("CO[C@@]1(NC(=O)C2SC(=C(C(N)=O)C(=O)O)S2)C(=O)N2C(C(=O)O)=C(CSc3nnnn3C)CS[C@@H]21 (some centres undefined) [CEFOTETAN]")
4
>>> endpoint_result("Cc1ncc([N+](=O)[O-])n1CCO [METRONIDAZOLE]")
0.5
>>> endpoint_result("COc1c(N2C[C@@H]3CCCN[C@@H]3C2)c(F)cc2c(=O)c(C(=O)O)cn(C3CC3)c12 [MOXIFLOXACIN]")
0.125
>>> endpoint_result("C[C@@H](O)[C@H]1C(=O)N2C(C(=O)O)=C(S[C@@H]3CN[C@H](C(=O)N(C)C)C3)[C@H](C)[C@H]12 [MEROPENEM]")
0.25
>>> endpoint_result("CO[C@@]1(NC(=O)Cc2cccs2)C(=O)N2C(C(=O)O)=C(COC(N)=O)CS[C@@H]21 [CEFOXITIN]")
1
